Here the recorded IC50 is given for each entry.
Measured On: muscarinic receptors
Method Summary: Radio ligand binding, displacement of muscarinic antagonist 3H-Quinuclidinyl Benzilate (3H-QNB), rat cerebral cortex membranes
Parameters: species or system Hooded Lister rats
Protocol Conditions: 0.27 nM 3H-QNB, tris pH 7.7, 37° C., 30 min
Where a name gives a salt, the structure may show the parent alone.
Measured Endpoint: IC50 (nM)

                                   molecule  value_unit  numeric_readout
0          Nc1nnn(C2CN3CCC2CC3)n1 (racemic)          nM             6500
1        Cc1nnn(C23CCCN(CC2)C3)n1 (racemic)          nM             2900
2  Brc1nnn([C@@H]2CN3CC[C@@H]2C3)n1 (relative stereo) [E41, oxalate salt]          nM             1500
